meta.source: patent US4232013A

Entries annotated with measured % Positive
System: vasoconstrictive activity, human volunteers
assay_name: vasoconstrictive activity in human volunteers (McKenzie and Stoughton's test or Falconi and Rossi's Paper-Patch Test)
Assay type: in vivo
condition_context: Table 2, first trial, dilution 10^5
Entry rule: numbers only, all in %.

| molecule | % Positive [%] |
| --- | --- |
| CCCCC(=O)OCC(=O)[C@@]12NN=C[C@@H]1C[C@H]1[C@@H]3C[C@H](F)C4=CC(=O)C=C[C@]4(C)[C@@]3(F)[C@@H](O)C[C@@]12C | 40 |
| CC1(C)O[C@@H]2C[C@H]3[C@@H]4C[C@H](F)C5=CC(=O)C=C[C@]5(C)[C@@]4(F)[C@@H](O)C[C@]3(C)[C@]2(C(=O)CO)O1 [Fluocinolone acetonide, reference compound] | 60 |
| CCCC(=O)OCC(=O)[C@@]12NN=C[C@@H]1C[C@H]1[C@@H]3C[C@H](F)C4=CC(=O)C=C[C@]4(C)[C@@]3(F)[C@@H](O)C[C@@]12C | 20 |
| CCCCC(=O)OCC(=O)[C@@]12NN=C[C@@H]1C[C@H]1[C@@H]3CCC4=CC(=O)C=C[C@]4(C)[C@@]3(F)[C@@H](O)C[C@@]12C | 40 |

Now look at this one.
For this molecule ( CC(C)(C)C(=O)OCC(=O)[C@@]12NN=C[C@@H]1C[C@H]1[C@@H]3C[C@H](F)C4=CC(=O)C=C[C@]4(C)[C@@]3(F)[C@@H](O)C[C@@]12C ), measured % Positive is 0
